- measurement notes: parental Ba/F3 cell viability inhibition, counter-screen for JAK2V617F inhibitor project, murine pro-B, CellTiter-Glo luminescence (AID 1486);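 further: 0% = DMSO wells and 100% = JAK Inhibitor I control wells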
- condition: CellTiter-Glo ATP luminescence, at 5.6 µM, hits give high values
The whole screen tested about 220,000 compounds, of which about 2,400 (1.1%) were called active. The sample holds actives, similar compounds and a random draw of the others, so the mix is not that of the screen.
assay metric: inhibition (%)

INSERT INTO measurements (compound, assay_metric, readout_number) VALUES
  ('CCOC(=O)N1CCN(C(=O)C2CCN(c3ncnc4c3sc3cccc(F)c34)CC2)CC1', 'inhibition', 40.6),
  ('O=C(CSc1nc2cc3c(cc2c(=O)n1CCC1=CCCCC1)OCO3)NCc1ccco1', 'inhibition', 33.2),
  ('COC(=O)COc1ccc(S(=O)(=O)Nc2ccc(NC(C)=O)cc2)cc1', 'inhibition', 3.84),
  ('Cc1ccc(/C=N/NC(=S)NC2CCCCC2)o1', 'inhibition', -7.43),
  ('C=CC[n+]1c(-c2ccc(C)cc2)csc1NNC(=O)Nc1ccccc1', 'inhibition', 57.4),
  ('Fc1ccc2[nH]c3c(N4CCN(Cc5ccc6c(c5)OCO6)CC4)ncnc3c2c1', 'inhibition', 43.4),
  ('Cc1ccccc1-c1nc(C#N)c(NCc2ccco2)o1', 'inhibition', 11.3),
  ('COc1ccc(Cl)cc1NC(=O)C(C)N1CCc2ccccc21 (stereo not drawn)', 'inhibition', 4.67),
  ('CN1CCc2nc(SC(C(=O)O)c3ccccc3)c(C#N)c(-c3cccs3)c2C1 (stereo not drawn)', 'inhibition', -0.18),
  ('Cc1ccc(N/N=C2\COC(C)(C)CC2=O)cc1', 'inhibition', -2.17),
  ('CC(=O)N/C(=C/c1ccc(OC(F)F)cc1)C(=O)O', 'inhibition', 6.54),
  ('CN(Cc1ccccc1)C(=O)CCc1ccccc1', 'inhibition', 1.56),
  ('Cc1ccc(C)c(NC(=O)c2ccc(OC(=O)c3ccco3)cc2)c1', 'inhibition', 5.55),
  ('CS(=O)(=O)Nc1cccc(-c2cn3ccccc3n2)c1', 'inhibition', 7.16),
  ('CCCOc1ccccc1C1CC(=O)Nc2cc3c(cc21)OCO3 (stereo not drawn)', 'inhibition', 71.8),
  ('CCCC1=Nc2cc(C(=O)NCc3ccco3)ccc2Sc2ccccc21', 'inhibition', 80.2),
  ('Cn1c(-c2ccc(F)cc2)cnc1SCC(=O)NNC(=O)Cc1ccccc1', 'inhibition', 1.6),
  ('CN(C(=O)COc1ncnc2c1cnn2-c1ccccc1)C1CCCCC1', 'inhibition', -1.06),
  ('COc1ccc(-n2cc(CNC3CCOCC3)c(-c3cccc(F)c3)n2)cc1', 'inhibition', 5.7),
  ('NC1=NC2(CCCCC2)N(c2ccc(F)cc2F)C(N)=N1', 'inhibition', 5.17),
  ('COc1ccc(Nc2oc(-c3ccccc3Cl)nc2C#N)cc1', 'inhibition', 29.4),
  ('Cc1ccc(-c2cnc(NC(=O)CCC(=O)N(C)Cc3ccccc3)n2C)cc1', 'inhibition', 62.4),
  ('CCCN(CCC)CC(O)COc1ccccc1C(=O)Nc1ccccc1 (stereo not drawn)', 'inhibition', 1.95);

###

- measurement notes: parental Ba/F3 cell viability inhibition, counter-screen for JAK2V617F inhibitor project, murine pro-B, CellTiter-Glo luminescence (AID 1486);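 further: 0% = DMSO wells and 100% = JAK Inhibitor I control wells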
- condition: CellTiter-Glo ATP luminescence, at 5.6 µM, hits give high values
The whole screen tested about 220,000 compounds, of which about 2,400 (1.1%) were called active. The entries come from a sample that favours actives as a whole.
Param threshold (6%) applies to inhibition; output Met when value >= threshold, Not met when value < threshold.

INSERT INTO results (compound, group_label) VALUES
  ('Cc1ccc(C2NC(C(=O)O)CS2)cc1 (stereo not given)', 'Not met'),
  ('CC[C@H]1CN2CCc3cc(OC)c(OC)cc3[C@@H]2C[C@@H]1C[C@H]1NCCc2cc(OC)c(OC)cc21', 'Met'),
  ('Cc1ccc(C)c2[nH]c(=O)c(CCNC(=O)c3cccs3)cc12', 'Met'),
  ('COc1cc2c(cc1O)[C@H](Cc1ccc(Oc3cc(C[C@@H]4NCCc5cc(OC)c(O)cc54)ccc3O)cc1)NCC2', 'Not met'),
  ('CCc1cccc(CC)c1NC(=S)NCc1ccc2[nH]c(C)cc2c1', 'Met');

Where these numbers come from: PubChem BioAssay AID1486
